This collection of values is drawn from PubChem BioAssay (NCATS).

System: CASKI
Test: Primary qHTS to identify gynecologic anti-cancer compounds using libraries of approved drugs and bioactive compounds (AID 1345084); further: nearly all actives have a fitted effect of over 55% in size
Settings: Gynecologic cancer cell panel viability, ATPlite luminescence, 48 h; series mostly up to 57.5 µM
Records with an inconclusive call do not appear. Active and inactive are the calls of the source. The call rests on the fitted dose curve; in most records, active means well fitted cell-killing curve with a large enough effect; inconclusive means small, poorly fitted or top-dose-only effect, or effect the other way; inactive means flat fitted curve, though single readings scatter.
Thanks in advance; please answer with one of these: Y (active), N (inactive)

| Molecule | Class Name |
| --- | --- |
| Cc1ccc(C(=O)Nc2cccc(C(F)(F)F)c2)cc1-c1ccc2nc(NCCN3CCOCC3)ncc2c1 | Y |
| CC(C)Nc1cc(C(F)(F)F)cc2nc(NC(=O)c3cccnc3)nn12 | N |
| C=CC(=O)Nc1cc2c(Nc3ccc(F)c(Cl)c3)ncnc2cc1OCCCN1CCOCC1 | Y |

Ask | Recorded test outcome, item O=C(O)Cn1nnc(-c2cc(N3CCC(Oc4cc(F)ccc4Br)CC3)no2)n1
Reply | N

Ask | Next: CC(C)c1nn(-c2c(Cl)cccc2Cl)c2nc(Cc3ccc(OCCO)cc3)[nH]c(=O)c12
Reply | Y

Ask | Next: CCNC(=O)Nc1ccc2ncc(Nc3ccc(C)cc3)nc2n1
Reply | N

Ask | Next: CN(C)c1nc(Cc2ccc(NC(=O)c3ccc4ccccc4c3)cc2)nc(Cl)c1CC(=O)O
Reply | N

Ask | Next: CC1COC2(CCN(c3nc(=O)c4cc(C(F)(F)F)cc([N+](=O)[O-])c4s3)CC2)O1 (centres undefined)
Reply | N

Ask | Next: CC[C@@]1(O)C(=O)OCc2c1cc1n(c2=O)Cc2cc3cc(O)ccc3nc2-1
Reply | Y
